assayTarget: Recombinant ROCK1 (amino acids 1-477) (Homo sapiens)
Construct: Recombinant ROCK1 (amino acids 1-477)
Sequence (Q13464 1-477): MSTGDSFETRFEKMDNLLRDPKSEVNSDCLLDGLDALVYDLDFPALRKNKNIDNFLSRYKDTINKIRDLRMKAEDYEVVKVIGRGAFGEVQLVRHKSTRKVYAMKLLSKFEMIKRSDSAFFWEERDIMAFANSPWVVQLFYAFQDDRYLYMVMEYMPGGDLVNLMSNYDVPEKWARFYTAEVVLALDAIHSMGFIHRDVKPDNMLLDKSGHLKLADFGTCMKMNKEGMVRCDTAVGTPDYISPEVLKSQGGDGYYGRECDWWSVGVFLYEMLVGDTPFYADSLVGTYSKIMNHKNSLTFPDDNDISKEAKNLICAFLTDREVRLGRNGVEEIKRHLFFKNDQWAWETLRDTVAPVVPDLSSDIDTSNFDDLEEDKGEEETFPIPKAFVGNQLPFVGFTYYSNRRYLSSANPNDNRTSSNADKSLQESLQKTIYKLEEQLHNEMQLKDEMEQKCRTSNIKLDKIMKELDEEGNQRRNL
assayComment: ROCK inhibition assay, LANCE Ultra TR-FRET (ROCK1)
experimentalParameters: 1 mM of ATP
recordedEndpoint: IC50

CN(C)CCn1cc(C(=O)C2COc3ccccc3O2)c2ccc(-c3cn[nH]c3)cc21 (stereo not drawn) :: > 0.501 µM
CN1CC[C@H]1Cn1nc(C(=O)[C@@H]2COc3ccc(F)cc3C2)c2ccc(-c3c[nH]nc3F)cc21 :: 0.201 to 0.5 µM
COc1n[nH]cc1-c1ccc2c(C(=O)[C@@H]3COc4ccc(Cl)cc4C3)cn(CCCN(C)C)c2c1 :: 0.201 to 0.5 µM
COc1[nH]ncc1-c1cc2c(cn1)c(C(=O)C1COc3ccc(Cl)cc3C1)cn2CCN(C)C (stereo not drawn) [Compound 1-1] :: > 0.501 µM
COc1[nH]ncc1-c1ccc2c(C(=O)C3COc4ccc(Cl)cc4C3)cn(CC3CCN3)c2c1 (stereo not drawn) :: > 0.501 µM
COc1[nH]ncc1-c1ccc2c(C(=O)[C@H]3COc4ccc(F)cc4C3)cn(CCN(C)C)c2c1 :: > 0.501 µM
O=C(c1cn(CC2CCN2)c2cc(-c3cn[nH]c3F)ccc12)C1COc2ccc(Cl)cc2C1 (stereo not drawn) :: > 0.501 µM
COc1ccc2c(c1)CC(C(=O)c1cn(CC3(N)CC3)c3cc(-c4cn[nH]c4F)ccc13)CO2 (stereo not drawn) :: 0.021 to 0.2 µM
CN(C)CCn1cc(C(=O)C2COc3ccc(F)cc3C2)c2ccc(-c3cn[nH]c3F)cc21 (stereo not drawn) :: > 0.501 µM
CN(C)CCn1cc(C(=O)[C@H]2COc3ccc(Cl)cc3C2)c2ccc(-c3cn[nH]c3Cl)cc21 :: > 0.501 µM
CCN(C)CCn1cc(C(=O)C2COc3ccc(Cl)cc3C2)c2ccc(-c3cn[nH]c3Cl)cc21 (stereo not drawn) :: > 0.501 µM
CCN(CCF)CCn1cc(C(=O)[C@@H]2COc3ccc(OC)cc3C2)c2ccc(-c3c[nH]nc3Cl)cc21 :: > 0.501 µM
CN(C)CCn1nc(C(=O)C2COc3ccccc3C2)c2ccc(-c3c[nH]nc3C(F)(F)F)cc21 (stereo not drawn) :: > 0.501 µM
COc1ccc2c(c1)CC(C(=O)c1nn(CCN(C)C)c3cc(-c4c[nH]nc4Cl)ccc13)CCO2 (stereo not drawn) :: > 0.501 µM
COc1n[nH]cc1-c1ccc2c(C(=O)C3COc4ccc(Cl)cc4C3)cn(C[C@@H](C)N)c2c1 (stereo partly drawn) :: 0.021 to 0.2 µM
CNCCn1cc(C(=O)C2COc3ccc(Cl)cc3C2)c2ccc(-c3cn[nH]c3Cl)cc21 (stereo not drawn) :: > 0.501 µM
CCN(CC)CCn1cc(C(=O)C2COc3ccc(Cl)cc3C2)c2ccc(-c3cn[nH]c3OC)cc21 (stereo not drawn) :: > 0.501 µM
COc1n[nH]cc1-c1ccc2c(C(=O)[C@@H]3COc4ccc(Cl)cc4C3)nn(CCN(C)C)c2c1 :: 0.201 to 0.5 µM
CN(C)CCn1nc(C(=O)C2COc3ccc(Cl)cc3C2)c2ccc(-c3c[nH]nc3F)cc21 (stereo not drawn) :: > 0.501 µM
COc1n[nH]cc1-c1ccc2c(C(=O)[C@H]3COc4ccc(Cl)cc4C3)nn(CCN(C)C)c2c1 :: > 0.501 µM
COc1[nH]ncc1-c1ccc2c(C(=O)C3COc4ccc(Cl)cc4C3)cn(CC3CCCN3C)c2c1 (stereo not drawn) :: > 0.501 µM
COc1n[nH]cc1-c1ccc2c(C(=O)C3CCOc4ccc(F)cc4C3)nn(CCN(C)C)c2c1 (stereo not drawn) :: > 0.501 µM
COc1n[nH]cc1-c1ccc2c(C(=O)C3COc4ccc(Cl)cc4C3)cn(C[C@H](C)N)c2c1 (stereo partly drawn) :: 0.201 to 0.5 µM
COc1ccc2c(c1)CC(C(=O)c1cn(CCN(C)C)c3cc(-c4c[nH]nc4Cl)ncc13)CO2 (stereo not drawn) :: > 0.501 µM
CN(C)CCn1cc(C(=O)C2COc3ccccc3O2)c2ccc(-c3c[nH]nc3Cl)cc21 (stereo not drawn) :: 0.201 to 0.5 µM
COc1ccc2c(c1)CC(C(=O)c1cn(C[C@H]3CCN3C)c3cc(-c4cn[nH]c4F)ccc13)CO2 (stereo partly drawn) :: > 0.501 µM
COc1[nH]ncc1-c1ccc2c(C(=O)C3COc4ccc(Cl)cc4C3)cn(CCN(C)C)c2n1 (stereo not drawn) :: > 0.501 µM
NCCn1cc(C(=O)C2COc3ccc(F)cc3C2)c2cnc(-c3c[nH]nc3Cl)cc21 (stereo not drawn) :: 0.021 to 0.2 µM
COc1ccc2c(c1)CC(C(=O)c1cn(CCN(C)C)c3cc(-c4cn[nH]c4OC)ccc13)CO2 (stereo not drawn) :: 0.201 to 0.5 µM
Cc1n[nH]cc1-c1ccc2c(C(=O)C3COc4ccc(Cl)cc4C3)cn(CCN(C)C)c2c1 (stereo not drawn) :: > 0.501 µM

Source listed as patent US20240360139A1.
